Measured on: Solute carrier family 22 member 1 (Rattus norvegicus, UniProt Q63089)
Sequence (Q63089 whole entry): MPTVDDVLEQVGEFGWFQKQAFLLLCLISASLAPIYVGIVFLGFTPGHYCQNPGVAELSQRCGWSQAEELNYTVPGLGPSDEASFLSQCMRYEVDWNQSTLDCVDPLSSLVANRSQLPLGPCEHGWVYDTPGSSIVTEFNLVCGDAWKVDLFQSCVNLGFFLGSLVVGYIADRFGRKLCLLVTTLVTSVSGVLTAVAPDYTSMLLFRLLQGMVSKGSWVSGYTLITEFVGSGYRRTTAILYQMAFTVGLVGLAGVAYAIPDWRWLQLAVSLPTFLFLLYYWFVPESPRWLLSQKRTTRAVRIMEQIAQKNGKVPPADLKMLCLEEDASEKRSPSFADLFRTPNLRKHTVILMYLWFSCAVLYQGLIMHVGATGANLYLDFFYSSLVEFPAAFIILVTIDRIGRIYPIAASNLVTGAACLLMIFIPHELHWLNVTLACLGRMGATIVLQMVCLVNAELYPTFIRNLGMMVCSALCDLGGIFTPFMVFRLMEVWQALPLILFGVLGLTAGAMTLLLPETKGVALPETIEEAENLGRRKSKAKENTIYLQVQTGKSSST
Experiment summary: TP_TRANSPORTER: inhibition of MPP+ uptake in OCT1-expressing HEK293 cells
# Ki values compiled below

{"Molecule": "Clc1cccc(Cl)c1N=C1NCCN1", "Reading unit": "nM", "Ki": 1400}
{"Molecule": "C[C@]12C[C@H](O)[C@H]3[C@@H](CCC4=CC(=O)CC[C@@]43C)[C@@H]1CC[C@@H]2C(=O)CO", "Reading unit": "nM", "Ki": 72000}
{"Molecule": "COc1cc(C(O)CNC(C)C)ccc1O (stereo unspecified)", "Reading unit": "nM", "Ki": 25000}
{"Molecule": "CC(C)N1/C(=C\\c2cc[n+](C(C)C)c3ccccc23)C=Cc2ccccc21", "Reading unit": "nM", "Ki": 110}
{"Molecule": "CC[n+]1c(CC2C=C(C)N=C(c3ccccc3)N2C)ccc2ccccc21 (stereo unspecified)", "Reading unit": "nM", "Ki": 670}
{"Molecule": "CCN1/C(=C/c2ccc3ccccc3[n+]2CC)C=Cc2ccccc21", "Reading unit": "nM", "Ki": 500}

The reported numbers originate from ChEMBL document CHEMBL2074507.
